target: Gamma-secretase; assay: Inhibition of gamma secretase C100Flag cleavaging activity in HeLa cell membranes assessed as M-amyloid beta-40 production by cell free assay; parameters: species or system Homo sapiens
REPORTED ENDPOINT: pIC50
For clarity, pIC50 is expressed as the negative log10 of concentration in mol/L.

Given "CCC[C@H](NC(=O)Cc1cc(F)cc(F)c1)C(=O)Nc1ncc(CN2CCOCC2)s1" , state its recorded pIC50.
7.52

Another compound: CCC[C@H](NC(=O)Cc1cc(F)cc(F)c1)C(=O)Nc1ncc(C(C)N2CCCC2)s1 (some centres undefined)
8.00

Another compound: CCC[C@H](NC(=O)Cc1cc(F)cc(F)c1)C(=O)Nc1nc(C)c(C(C)NCC(F)(F)F)s1 (some centres undefined)
8.00

Another compound: "CCC[C@H](NC(=O)Cc1cc(F)cc(F)c1)C(=O)Nc1nc(C)c(CC)s1"
7.52

Another compound: CCC[C@H](NC(=O)Cc1cc(F)cc(F)c1)C(=O)Nc1ncc(C(C)NCCC(C)(C)C)s1 (some centres undefined)
8.57

Another compound: "CCC[C@H](NC(=O)[C@H](O)c1ccccc1)C(=O)Nc1ncc(C(O)(CC)CC)s1"
6.85

Another compound: COC(C)(C)CCCC(C)c1cnc(NC(=O)[C@H](C)NC(=O)CCc2cc(F)cc(F)c2)s1 (some centres undefined)
7.52

Another compound: "CCC[C@H](NC(=O)Cc1cc(F)cc(F)c1)C(=O)Nc1nc(C)c(C)s1"
6.85
